Origin of values: paper PMC4627231

experiment: Pharmacokinetic profile after IV and oral administration; type: in vivo; details: mouse, iv, 2 mg/kg; I.V., female C57BL/6 mice, plasma
assay.readout: AUC(0-inf) (ng·h/mL)

[[record]]
entry_smiles = "COc1cccc2c(NCCCCCO[N+](=O)[O-])ccnc12"
assay_readout = "AUC(0-inf)"
measurement = 114


###

experiment: Pharmacokinetic profile after IV and oral administration; assay type: in vivo; settings: mouse, iv, 2 mg/kg; I.V., female C57BL/6 mice, plasma
assay.readout: C0 (ng/mL)

[[record]]
entry_smiles = "COc1cccc2c(NCCCCCO[N+](=O)[O-])ccnc12"
measurement = 249


###

assay: Pharmacokinetic profile after IV and oral administration; assay type: in vivo; details: mouse, iv, 2 mg/kg; I.V., female C57BL/6 mice, plasma
assay.readout: half-life

[[record]]
entry_smiles = "COc1cccc2c(NCCCCCO[N+](=O)[O-])ccnc12"
measurement = "23.2 min"

